assay: APR_HepG2_p53Act_72hr: Apredica 72-hour HepG2 Assay for p53 Activation (AID 2282923); conditions: high-content imaging, actives raise or lower the signal;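 further: average cellular p53 protein immunofluorescence intensity in HepG2 cells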
The source made the active and inactive calls. How the source made its calls: active means hit-call score of the fitted dose curve at least 0.9, where 1 is the maximum; inactive means score below 0.9.
Thanks in advance; please answer with one of these: active, inactive

Input line: Which outcome was entered for the compound `COc1cc(-c2nc(NC(=O)c3cc4cc(C)cc(C)c4n3CC(=O)O)sc2CCC2CCCCC2)c(OC)cc1Cl` in this test?
Output line: inactive

Input line: Which outcome was entered for the compound `CCCCCC(=O)O` in this test?
Output line: inactive

Input line: Which outcome was entered for the compound `O=C(N[C@@H](Cc1ccccc1)[C@@H](O)C(=O)N1C[C@@H](O)[C@@H](O)C1)c1cc2cc(Cl)ccc2[nH]1` in this test?
Output line: active

Input line: Which outcome was entered for the compound `OC[C@@H](O)[C@@H](O)[C@H](O)[C@H](O)CO` in this test?
Output line: inactive

Input line: Which outcome was entered for the compound `Cc1cc(=O)[nH]c(=S)[nH]1` in this test?
Output line: inactive

Input line: Which outcome was entered for the compound `CCCCCCCCCCCCCCCC` in this test?
Output line: inactive

Input line: Which outcome was entered for the compound `NCCO` in this test?
Output line: inactive

Input line: Which outcome was entered for the compound `Cc1ccc(C(C)C)c(O)c1` in this test?
Output line: inactive

====

read-out: Cytochrome P450 7A1 (Homo sapiens) (UniProt P22680); assay: LTEA_HepaRG_CYP7A1: Life Technologies and Expression Analysis (LTEA) Assay for Cytochrome P450 7A1 (CYP7A1) using HepaRG (AID 2283496); conditions: mRNA level, 48 h; actives raise or lower the signal
Calls of active or inactive are those of the source. Rule for the calls: active = hit-call score of the fitted dose curve at least 0.9, where 1 is the maximum; inactive = score below 0.9.
Thanks in advance; please answer with one of these: t (active), f (inactive)

Input line: Which outcome was entered for the molecule `COCCOCCOC` in this test?
Output line: f

Input line: Which outcome was entered for the molecule `CNC(=O)[C@H]1O[C@@H](n2cnc3c(NCc4cc(Cl)ccc4OCc4cc(C)no4)ncnc32)[C@H](O)[C@@H]1N` in this test?
Output line: f

Input line: Which outcome was entered for the molecule `CCCCCCCCCCCCCCCCCC(=O)O` in this test?
Output line: f

Input line: Which outcome was entered for the molecule `Nc1nc(N)c2nc(CNc3ccc(C(=O)N[C@@H](CCC(=O)O)C(=O)O)cc3)cnc2n1` in this test?
Output line: t

Input line: Which outcome was entered for the molecule `Oc1ccc2ccccc2c1N=Nc1ccccc1` in this test?
Output line: t

Input line: Which outcome was entered for the molecule `Nc1ccc(S(=O)(=O)c2ccc(N)cc2)cc1` in this test?
Output line: f

Input line: Which outcome was entered for the molecule `CC1(C)NC(=O)NC1=O` in this test?
Output line: f

Input line: Which outcome was entered for the molecule `CCc1c(C(=O)NN2CCCCC2)nn(-c2ccc(Cl)cc2Cl)c1-c1ccc(Br)cc1` in this test?
Output line: t

Input line: Which outcome was entered for the molecule `CN[C@H]1CC[C@@H](c2ccc(Cl)c(Cl)c2)c2ccc(S(N)(=O)=O)cc21` in this test?
Output line: t

Input line: Which outcome was entered for the molecule `C[Si]1(C)O[Si](C)(C)O[Si](C)(C)O[Si](C)(C)O1` in this test?
Output line: f

====

test: ATG_Sox_CIS: Attagene CIS-FACTORIAL HepG2 Assay for human SRY-box transcription factor (SOX) (AID 2282960); conditions: HepG2 Attagene cis-factorial SOX reporter, mRNA; actives raise or lower the signal
Active and inactive are the calls of the source. How the source made its calls: active means hit-call score of the fitted dose curve at least 0.9, where 1 is the maximum; inactive means score below 0.9.
Thanks in advance; please answer with one of these: active, inactive

Input line: Which outcome was entered for the compound `Cc1cc(NC(=O)C(=O)O)cc(C)c1Oc1ccc(O)c2c1CCC2` in this test?
Output line: inactive

Input line: Which outcome was entered for the compound `Clc1cc(Cl)c(Cl)cc1Cl` in this test?
Output line: inactive

Input line: Which outcome was entered for the compound `CCCCCC(=O)O` in this test?
Output line: inactive

Input line: Which outcome was entered for the compound `CCCCCCCCCCCCCCCC` in this test?
Output line: inactive

Input line: Which outcome was entered for the compound CC(CO)OC(C)CO (stereo not drawn) (tested in a mixture with another compound) in this test?
Output line: inactive

Input line: Which outcome was entered for the compound `COC(=O)c1ccc(O)cc1` in this test?
Output line: inactive

Input line: Which outcome was entered for the compound `CC(C)(C)c1cc(O)c(C(C)(C)C)cc1O` in this test?
Output line: active

Input line: Which outcome was entered for the compound `CCOc1ccc2c(c1)C(C)=CC(C)(C)N2` in this test?
Output line: inactive

====

read-out: flavin-containing dimethylaniline monooxygenases 3 (FMO3), FMO3 (gene 2328); experiment: LTEA_HepaRG_FMO3: Life Technologies and Expression Analysis (LTEA) Assay for flavin-containing dimethylaniline monooxygenases 3 (FMO3) using HepaRG (AID 2283453); settings: mRNA level, 48 h; actives raise or lower the signal
Active and inactive are the calls of the source. Rule for the calls: active = hit-call score of the fitted dose curve at least 0.9, where 1 is the maximum; inactive = score below 0.9.
Thanks in advance; please answer with one of these: 1 (active), -1 (inactive)

Input line: Which outcome was entered for the molecule `CC(=O)OC/C=C(\C)CCC=C(C)C` in this test?
Output line: -1

Input line: Which outcome was entered for the molecule `OC[C@@H](O)[C@@H](O)[C@H](O)[C@H](O)CO` in this test?
Output line: -1

Input line: Which outcome was entered for the molecule CC(=O)C(C)=CC1C(C)=CCCC1(C)C (stereo unspecified) in this test?
Output line: -1

Input line: Which outcome was entered for the molecule `CCCCCCCC=O` in this test?
Output line: -1

Input line: Which outcome was entered for the molecule `CC(=O)Oc1ccccc1C(=O)O` in this test?
Output line: -1

Input line: Which outcome was entered for the molecule `Cc1ccc(C(C)C)c(O)c1` in this test?
Output line: -1

Input line: Which outcome was entered for the molecule `Cc1ccc2ncccc2c1` in this test?
Output line: -1

Input line: Which outcome was entered for the molecule `Oc1ccc2ccccc2c1N=Nc1ccccc1` in this test?
Output line: 1

Input line: Which outcome was entered for the molecule `CC1=C(/C=C/C(C)=C/C=C/C(C)=C/CO)C(C)(C)CCC1` in this test?
Output line: -1

Input line: Which outcome was entered for the molecule `COc1cc(S(=O)(=O)O)c(C)cc1N=Nc1c(O)ccc2cc(S(=O)(=O)O)ccc12` in this test?
Output line: -1

Input line: Which outcome was entered for the molecule `O=C(OCCCCCOC(=O)c1ccccc1)c1ccccc1` in this test?
Output line: 1

====

Read-out: Broad substrate specificity ATP-binding cassette transporter ABCG2 (Homo sapiens)
Assay: LTEA_HepaRG_ABCG2: Life Technologies and Expression Analysis (LTEA) Assay for ABC Transporter (ABCG2) using HepaRG (AID 2283465)
Conditions: mRNA level, 48 h; actives raise or lower the signal
Experimental: LTEA_HepaRG is a cell based, multiplexed-readout assay that uses HepaRG, a human liver cell line, with measurements taken at 48 hours after chemical dosing on a 96-well plate.LTEA_HepaRG_ABCG2 is one of 102 assay component(s) measured in the LTEA HepaRG cell culture assay. It is a marker of Steatosis/NR mediated transport.Data from the assay component LTEA_HepaRG_ABCG2 was analyzed into 1 endpoint. […]
The source made the active and inactive calls. The calls were made as follows: active = hit-call score of the fitted dose curve at least 0.9, where 1 is the maximum; inactive = score below 0.9.
measured-parameter: outcome

Examples with their reported outcome follow.
{"compound": "CCNc1cccc(C)c1", "observed-value": "inactive"}
{"compound": "Cc1c(C(=O)O)c(O)cc2c1C(=O)c1c(O)c([C@@H]3O[C@H](CO)[C@@H](O)[C@H](O)[C@H]3O)c(O)c(O)c1C2=O", "observed-value": "inactive"}
{"compound": "Cc1ccc(C)c(O)c1C", "observed-value": "inactive"}
{"compound": "Cc1ccc2ncccc2c1", "observed-value": "inactive"}
{"compound": "C=CCOC(=O)c1ccccc1C(=O)OCC=C", "observed-value": "inactive"}

Input line: Report outcome for `CN[C@H]1CC[C@@H](c2ccc(Cl)c(Cl)c2)c2ccc(S(N)(=O)=O)cc21` please.
Output line: inactive

====

read-out: Interleukin 6 Receptor (IL6R), IL6R (gene 3570); assay: LTEA_HepaRG_IL6R: Life Technologies and Expression Analysis (LTEA) Assay for Interleukin 6 Receptor (IL6R) using HepaRG (AID 2283510); settings: mRNA level, 48 h; actives raise or lower the signal
Calls of active or inactive are those of the source. The calls were made as follows: active = hit-call score of the fitted dose curve at least 0.9, where 1 is the maximum; inactive = score below 0.9.
Thanks in advance; please answer with one of these: t = active, f = inactive

Input line: Which outcome was entered for the compound `CC(C)(C)c1cc(O)c(C(C)(C)C)cc1O` in this test?
Output line: t

Input line: Which outcome was entered for the compound `Oc1ccc2c(c1)OC[C@@H](N1CCC(O)(c3ccc(F)cc3)CC1)[C@H]2O` in this test?
Output line: f

Input line: Which outcome was entered for the compound `C=CCOC(=O)c1ccccc1C(=O)OCC=C` in this test?
Output line: f

====

test: ATG_MRE_CIS: Attagene CIS-FACTORIAL HepG2 Assay for human Metal Responsive Element (MRE) (AID 2282954); settings: HepG2 MRE cis-reporter transcription, Attagene multiplex; actives raise or lower the signal
Calls of active or inactive are those of the source. The calls were made as follows: active = hit-call score of the fitted dose curve at least 0.9, where 1 is the maximum; inactive = score below 0.9.
Thanks in advance; please answer with one of these: YES for active, NO for inactive

Input line: Which outcome was entered for the molecule `O=C(O)CCCCC(=O)O` in this test?
Output line: NO

Input line: Which outcome was entered for the molecule `CCCCCCCCCCCCCO` in this test?
Output line: NO

Input line: Which outcome was entered for the molecule `CCCCCCOCCO` in this test?
Output line: NO

Input line: Which outcome was entered for the molecule `CN[C@H]1CC[C@@H](c2ccc(Cl)c(Cl)c2)c2ccc(S(N)(=O)=O)cc21` in this test?
Output line: NO

Input line: Which outcome was entered for the molecule `Cc1ccc(C)c(O)c1C` in this test?
Output line: NO

Input line: Which outcome was entered for the molecule `COc1ccc(S(=O)(=O)N2C(=O)[C@@](c3ccccc3OC)(N3C[C@H](O)C[C@H]3C(=O)N(C)C)c3cc(Cl)ccc32)c(OC)c1` in this test?
Output line: YES

Input line: Which outcome was entered for the molecule `COc1cc(S(=O)(=O)O)c(C)cc1N=Nc1c(O)ccc2cc(S(=O)(=O)O)ccc12` in this test?
Output line: NO

Input line: Which outcome was entered for the molecule `c1cc(-c2ccncc2)ccn1` in this test?
Output line: NO

Input line: Which outcome was entered for the molecule `Nc1nc(N)c2nc(CNc3ccc(C(=O)N[C@@H](CCC(=O)O)C(=O)O)cc3)cnc2n1` in this test?
Output line: NO

Input line: Which outcome was entered for the molecule `Cc1ccc2ncccc2c1` in this test?
Output line: NO

Input line: Which outcome was entered for the molecule `COc1cc(/C=C/C(=O)CC(=O)/C=C/c2ccc(O)c(OC)c2)ccc1O` in this test?
Output line: YES

Input line: Which outcome was entered for the molecule `CCNc1cccc(C)c1` in this test?
Output line: NO

Input line: Which outcome was entered for the molecule `O=c1c(O)c(-c2ccc(O)c(O)c2)oc2cc(O)cc(O)c12` in this test?
Output line: NO

Input line: Which outcome was entered for the molecule `O=c1[nH]cc(F)c(=O)[nH]1` in this test?
Output line: NO

Input line: Which outcome was entered for the molecule `CCc1c(C(=O)NN2CCCCC2)nn(-c2ccc(Cl)cc2Cl)c1-c1ccc(Br)cc1` in this test?
Output line: YES

Input line: Which outcome was entered for the molecule `CCCCCCCCCCCCCCCCCC(=O)O` in this test?
Output line: NO

Every entry's value here was drawn from PubChem BioAssay (EPA / NIEHS).
